Counter-ions that a name gives are not always drawn.
VALUE KIND: melting point

Answered examples (5):
{"MOLECULE": "COCCc1nc2c(N)nc3ccccc3c2n1CCOCC#Cc1ccccc1 [Example 120]", "RESULT": "134.5 to 135.5 °C"}
{"MOLECULE": "CNS(=O)(=O)c1ccc(C)c(CCCOCCn2cnc3c(N)nc4ccccc4c32)c1 [Example 6]", "RESULT": "207 to 209 °C"}
{"MOLECULE": "Nc1nc2ccccc2c2c1ncn2CCOCC#Cc1ccccc1 [Example 3]", "RESULT": "196 to 197 °C"}
{"MOLECULE": "Cc1nc2c(N)nc3ccccc3c2n1CCCCOCCCc1ccccc1 [Example 150]", "RESULT": "105.1 to 106 °C"}
{"MOLECULE": "Cc1nc2c(N)nc3ccccc3c2n1CCOCc1ccccc1 [Example 127]", "RESULT": "159 to 160 °C"}

Exercise: Retrieve melting point measured for CCCCc1nc2c(N)nc3ccccc3c2n1CCOCCCc1ccccc1 [Example 124] and print it.
Solution: 80.8 to 81.3 °C

Exercise: Retrieve melting point measured for CC(C)c1ccccc1C#CCOCCn1cnc2c(N)nc3ccccc3c21 (as salt: hydrochloride) [Example 7] and print it.
Solution: 239 to 241 °C

Exercise: Retrieve melting point measured for Nc1nc2ccccc2c2c1nc(CCC1CCCC1)n2CCOc1ccccc1 [Example 138] and print it.
Solution: 165 °C

Exercise: Retrieve melting point measured for Nc1nc2ccccc2c2c1ncn2CCOCC#Cc1ccc(Oc2ccccc2)cc1 [Example 9] and print it.
Solution: 146 to 148 °C

----------
Test system: Peripheral blood mononuclear cells (PBMC)
PROTOCOL DESCRIPTION: Cytokine Induction in Human Cells (in vitro human blood cell system, IFN and TNF secreted into culture media)
Assay type: cell-based
RUN PARAMETERS: Homo sapiens, PBMC, lowest concentration found to induce tumor necrosis factor (α), 18 to 24 hours, ELISA or IGEN assay, tested 30-0.014 μM, read-out: Lowest Effective Concentration (μM) Tumor Necrosis Factor
VALUE KIND: minimal effective concentration (µM)
Please give a number only; it is taken to be in µM.

Answered examples (3):
{"MOLECULE": "Nc1nc2ccccc2c2c1ncn2CCOCCCc1ccccc1 [Example 22]", "RESULT": 0.37}
{"MOLECULE": "CC[C@H](COCc1ccc(C#N)cc1)n1cnc2c(N)nc3ccccc3c21 [Example 142]", "RESULT": 0.04}
{"MOLECULE": "CN(C)c1ccc(CCCOCCn2cnc3c(N)nc4ccccc4c32)cc1 [Example 114]", "RESULT": 0.37}

Exercise: Retrieve minimal effective concentration measured for CCC(COc1ccc(NC(C)=O)cc1)n1cnc2c(N)nc3ccccc3c21 (stereo not drawn) [Example 104] and print it.
Solution: 10

Exercise: Retrieve minimal effective concentration measured for C#CCOCCn1c(CCOC)nc2c(N)nc3ccccc3c21 [Example 144] and print it.
Solution: 0.04

Exercise: Retrieve minimal effective concentration measured for CC[C@@H](COCc1ccc(C#N)cc1)n1cnc2c(N)nc3ccccc3c21 [Example 143] and print it.
Solution: 3.33

----------
System: Peripheral blood mononuclear cells (PBMC)
PROTOCOL DESCRIPTION: Cytokine Induction in Human Cells (in vitro human blood cell system, IFN and TNF secreted into culture media)
Format: cell-based
Set-up: key: *: no induction was seen at any of the tested concentrations
RUN PARAMETERS: lowest concentration found to induce interferon (α), 18 to 24 hours, ELISA, tested 30-0.014 μM
Method: An in vitro human blood cell system is used to assess cytokine induction. […] Following incubation the plates are centrifuged for 10 minutes at 1000 rpm (˜200×g) at 4° C. […] The samples are analyzed for interferon (α) by ELISA and for tumor necrosis factor (α) by ELISA or IGEN Assay. Interferon (α) concentration is determined by ELISA using a Human Multi-Species kit from PBL Biomedical Laboratories, New Brunswick, N.J. Results are expressed in pg/mL. […]
VALUE KIND: Lowest Effective Concentration (μM) Interferon

{"COMPOUND": "Cc1ccc([N+](=O)[O-])c(OCC(C(C)C)n2cnc3c(N)nc4ccccc4c32)c1 (stereo not drawn)", "RESULT": "*"}
{"COMPOUND": "Nc1nc2ccccc2c2c1ncn2CCCCOCc1ccc(C(F)(F)F)cc1", "RESULT": "*"}
{"COMPOUND": "CC(C)C(COc1ccccc1[N+](=O)[O-])n1cnc2c(N)nc3ccccc3c21 (stereo not drawn)", "RESULT": "*"}
